- System: Plasma
- Assay comment: Plasma concentration in rat at 3 mg/kg, sc
- Assay type: ADME, organism-based
- Parameters: dose 3 mg/kg, route subcutaneous
- Stated conditions: in vivo, read-out: Drug uptake
Experimental endpoint: concentration

>>> print(df.to_string())
                                  structure  obs_value
0  O=C(c1ccc(Oc2ccc(F)cc2)nc1)N1CCCN(C2CCC2)CC1     257 nM

====

- Assay comment: Clearance in Sprague-Dawley rat at 1 mg/kg, iv and 10 mg/kg, po
- Type: ADME, organism-based
- Stated conditions: in vivo
Experimental endpoint: clearance (mL/min/kg)

                                  structure  obs_value
0  O=C(c1ccc(Oc2ccc(F)cc2)nc1)N1CCCN(C2CCC2)CC1         49
1  O=C(c1ccc(Oc2cccc(F)c2)nc1)N1CCCN(C2CCC2)CC1        118
2  O=C(c1ccc(Oc2cccc(Cl)c2)nc1)N1CCCN(C2CCC2)CC1        104
3  O=C(c1ccc(Oc2ccc(Cl)cc2)nc1)N1CCCN(C2CCC2)CC1         36
4  N#Cc1cccc(Oc2ccc(C(=O)N3CCCN(C4CCC4)CC3)cn2)c1         41
5  O=C(c1ccc(Oc2ccc(F)cc2)cn1)N1CCCN(C2CCC2)CC1         80
